This section presents binders with their documented phage binding ELISA signal values.
- SYSTEM: T1, PSMA Fab (006 PSMA Fab) (biotinylated (site not stated))
- T1 construct: That the same Fab was used in the panning ELISA is inferred; also called Anti-PSMA Fab; anti-PSMA Fab
- PROCEDURE TEXT: clonal phage ELISA on biotinylated anti-PSMA Fab captured on neutravidin, anti-M13-HRP detection

For orientation, consider the following solved cases.
{"columns": ["BINDER", "MEASURED VALUE"],
 "data": [
  ["TSLRCVPEWMCSGF (Peptide-180 library clone, tested as clonal phage supernatant; not shown: fused to the pIII filament protein of the bacteriophage) [Phage-3428]", 1.77],
  ["EDILCKPVWMCIGF (Peptide-180 library clone, tested as clonal phage supernatant; not shown: fused to the pIII filament protein of the bacteriophage) [Phage-3431]", 1.77],
  ["NDVKCIPEWMCVGF (Peptide-180 library clone, tested as clonal phage supernatant; not shown: fused to the pIII filament protein of the bacteriophage) [Phage-3420]", 1.78],
  ["SFLRCEPMWMCLGF (Peptide-180 library clone, tested as clonal phage supernatant; not shown: fused to the pIII filament protein of the bacteriophage) [Phage-3432]", 1.77],
  ["IDQICKPAWMCSGF (Peptide-180 library clone, tested as clonal phage supernatant; not shown: fused to the pIII filament protein of the bacteriophage) [Phage-3424]", 1.78],
  ["VEKMCKPVWMCNGF (Peptide-180 library clone, tested as clonal phage supernatant; not shown: fused to the pIII filament protein of the bacteriophage) [Phage-3430]", 1.77],
  ["SLPICKPEWMCVGL (Peptide-180 library clone, tested as clonal phage supernatant; not shown: fused to the pIII filament protein of the bacteriophage) [Phage-3429]", 1.77],
  ["LEIMCRPEWMCSGF (Peptide-180 library clone, tested as clonal phage supernatant; not shown: fused to the pIII filament protein of the bacteriophage) [Phage-3425]", 1.77]
]}

query: Look up phage binding ELISA signal of LSTLCIPQWMCTGL (Peptide-180 library clone, tested as clonal phage supernatant; not shown: fused to the pIII filament protein of the bacteriophage) [Phage-3422] and report it.
result: 1.78

query: Look up phage binding ELISA signal of TDPLCIPEWMCQGM (Peptide-180 library clone, tested as clonal phage supernatant; not shown: fused to the pIII filament protein of the bacteriophage) [Phage-3421] and report it.
result: 1.78

query: Look up phage binding ELISA signal of SSMLCIPTWMCGGF (Peptide-180 library clone, tested as clonal phage supernatant; not shown: fused to the pIII filament protein of the bacteriophage) [Phage-3427] and report it.
result: 1.77

// data source = patent US20260242478A1
